Tested on: ZR751
Test: Dose-response to palbociclib, CyQUANT NF cell proliferation after 4 days
Type: cell-based
Conditions: Homo sapiens, ZR-75-1; control cells with backbone vector expressing RFP; read-out: IC50 ZR751 RFP
readout.type: IC50

{"molecule": "CC(=O)c1c(C)c2cnc(Nc3ccc(N4CCNCC4)cn3)nc2n(C2CCCC2)c1=O [palbociclib]", "readout.type": "IC50", "result.value": "354 nM"}

====

System: MCF7
Experiment: Dose-response to palbociclib, CyQUANT NF cell proliferation after 4 days
Assay type: cell-based
Conditions: Homo sapiens; parental sensitive MCF7

{"structure.notation": "CC(=O)c1c(C)c2cnc(Nc3ccc(N4CCNCC4)cn3)nc2n(C2CCCC2)c1=O", "units": "nM", "IC50": 250}

====

Tested on: T47D-PR
Assay: Dose-response to palbociclib, CyQUANT NF cell proliferation after 4 days
Format: cell-based
Settings: palbociclib-resistant T47D-PR
pIC50: −log10 of the molar value.
readout.type: pIC50

{"structure.notation": "CC(=O)c1c(C)c2cnc(Nc3ccc(N4CCNCC4)cn3)nc2n(C2CCCC2)c1=O", "result.value": 5.74}

====

Tested on: ZR751
Experiment: Dose-response to palbociclib, CyQUANT NF cell proliferation after 4 days
Type: cell-based
Settings: Homo sapiens, ZR-75-1; FGFR4 knockdown shFGFR4#2; read-out: IC50 ZR751 shFGFR4#2
readout.type: IC50 (nM)

{"structure.notation": "CC(=O)c1c(C)c2cnc(Nc3ccc(N4CCNCC4)cn3)nc2n(C2CCCC2)c1=O", "readout.type": "IC50", "units": "nM", "result.value": 125}

====

System: ZR751
Experiment: Dose-response to palbociclib, CyQUANT NF cell proliferation after 4 days
Assay type: cell-based
Conditions: Homo sapiens, ZR-75-1; FGFR4 knockdown shFGFR4#1; read-out: IC50 ZR751 shFGFR4#1
readout.type: IC50 (nM)

{"structure.notation": "CC(=O)c1c(C)c2cnc(Nc3ccc(N4CCNCC4)cn3)nc2n(C2CCCC2)c1=O", "readout.type": "IC50", "units": "nM", "result.value": 80.2}

Reference for the values: patent EP4509142A1
